System: OVCAR-4
Measurement description: NCI tumour cell line growth inhibition, 48 h
Active and inactive are the calls of the source. Rule as the data show it: active = GI50 up to about 1.1 µM and inactive = higher.
Outcome field: choose from 1 for active, 0 for inactive

Below, 10 compounds whose answers are already recorded.
Compound	System name	Discrete label
NCCCCNCCCNC(=O)c1nc(-c2nc(CCN)sc2Cl)sc1Cl	OVCAR-4	0
CCN1CCC(O)(/C=C/c2ccccc2)C(C(=O)/C=C/c2ccccc2)C1 (configuration not stated)	OVCAR-4	0
Cc1cc(NS(=O)(=O)c2ccc(Nc3c4ccccc4nc4c(C(=O)NCCN(C)C)cccc34)cc2)no1	OVCAR-4	0
CSCCC(NC(=O)OCc1ccccc1)NC(=O)OCc1ccccc1	OVCAR-4	0
O=C(NCc1ccccc1Cl)c1c(O)c2ccccc2[nH]c1=O	OVCAR-4	0
COc1cc(C[C@H]2C(=O)OC[C@@H]2Cc2ccc(OC)c(OC)c2)cc(OC)c1	OVCAR-4	0
CCOC(=N)n1c(=O)n(C2=NCCN2)c2ccccc21	OVCAR-4	0
O=C(c1ccccc1)c1c(-c2ccccc2)[nH]n(-c2ccc([N+](=O)[O-])cc2)c(=O)c1=O	OVCAR-4	0
[N-]=[N+]=C1N=CN=C1c1nc[nH]n1	OVCAR-4	0
C=C(Br)CN(CC(=C)Br)C(C)=O	OVCAR-4	0

Let us examine a further case.
query: Please let me know the test result on file for CC(=O)C1C(=O)N(C(C)C)C[C@@H]2CCC(=O)C[C@H]12 (some centres not stated) .
result: 0

====

Test system: LXFL 529
Measurement description: NCI tumour cell line growth inhibition, 48 h
Calls of active or inactive are those of the source. No stated cut-off is given here; in the data, active = GI50 up to about 1.1 µM and inactive = higher.
Outcome field: choose from active, inactive

Below, 8 molecules whose answers are already recorded.
Molecule	System name	Discrete label
CCOC(=O)/C=C1\Oc2ccccc2C1(C)O (configuration not stated)	LXFL 529	inactive
CCCCCC[N+](C)(C)Cc1ccc(C[N+](C)(C)CCCCCC)cc1	LXFL 529	inactive
Cc1c2n(c(=O)[nH]c1=O)C1OC(CO)C(O2)C1O (configuration not stated)	LXFL 529	inactive
CCOc1ccc2c(c1)[n+]([O-])c(-c1nc3ccccc3s1)c(N)[n+]2[O-]	LXFL 529	inactive
O=C(CC/C(C/C(=N/O)c1ccc(F)cc1)=N/O)N(Cc1ccccc1)Cc1ccccc1	LXFL 529	inactive
COC(=O)C#CC(N)=O	LXFL 529	inactive
Nc1cc(O)nc(SC2=NC(N)CC(O)C2)n1 (configuration not stated)	LXFL 529	inactive
CC(C)(O)/C=C/C(=O)[C@](C)(O)[C@H]1[C@H](O)C[C@@]2(C)[C@@H]3CC=C4[C@@H](C[C@H](O)C(=O)C4(C)C)[C@]3(C)C(=O)C[C@]12C [CUCURBITACIN D]	LXFL 529	active

query: Please let me know the test result on file for COC(=O)C(/C(=N/N)C(=O)Nc1cc(Cl)ccc1Cl)c1nc2ccc([N+](=O)[O-])cc2nc1O (configuration not stated) .
result: inactive

query: Please let me know the test result on file for NC(=O)C(=O)N/N=C(\CC1(O)C(=O)Nc2ccccc21)c1ccc2ccccc2c1 (configuration not stated) .
result: inactive

query: Please let me know the test result on file for "CCc1c(-c2coc(CC/C(C)=C/c3ccccc3)n2)oc(OC)c(C)c1=O" .
result: inactive

query: Please let me know the test result on file for "C=CNC(=O)NC(=O)CSc1nc(=O)c(-c2ccccc2NC(=O)C(F)(F)F)n[nH]1" .
result: inactive

query: Please let me know the test result on file for "c1cc2c(ncc3cscc32)s1" .
result: inactive

query: Please let me know the test result on file for "CC1=N/C(=C/c2ccc3c(c2)OCO3)C(=O)O1" .
result: inactive

query: Please let me know the test result on file for CCC1(CN(C)C)CC/C(=C\c2ccc3c(c2)OCO3)C1=O (configuration not stated) .
result: inactive

query: Please let me know the test result on file for "O=C1c2ccccc2C(=O)N1CCN(CCN1C(=O)c2ccccc2C1=O)Cn1cccn1" .
result: inactive

query: Please let me know the test result on file for "C/C(=N\N=C(/S)N1CCCCCC1)c1cccc[n+]1[O-]" .
result: active

query: Please let me know the test result on file for "O=C1c2ccccc2C(=O)c2sc(Nc3ccc([N+](=O)[O-])cc3)nc21" .
result: inactive

query: Please let me know the test result on file for "COC1(OC)C(N(C)C)=C(Cl)C(=O)/C1=C/C=O" .
result: inactive

query: Please let me know the test result on file for "Cc1ccccc1-c1c(N)nc(NC#N)nc1C(=O)Nc1ccccc1" .
result: inactive

query: Please let me know the test result on file for Cc1cc(O)nc(NNC(C#N)c2ccc(O)cc2)n1 (configuration not stated) .
result: inactive

query: Please let me know the test result on file for CC(=O)C1CC(C)=CCC12C(=O)Nc1ccccc12 (configuration not stated) .
result: inactive

====

Kindly state GI50 for each of the entries shown.
Test system: NCI-H460
Measurement description: NCI tumour cell line growth inhibition, 48 h
Active and inactive are the calls of the source. Rule as the data show it: active = GI50 up to about 1.1 µM and inactive = higher.

// solved cases for GI50 follow
Compound	GI50
O=C(CCCCCCCCC(=O)N1C(=O)CC(=O)N(c2ccc(Cl)cc2)C1=S)N1C(=O)CC(=O)N(c2ccc(Cl)cc2)C1=S	29.6 µM (inactive)
CNC(=O)[C@H](Cc1ccccc1)NC(=O)N(CCC#N)CCN(C(=O)N[C@@H](Cc1ccccc1)C(=O)OC)c1ccccc1	> 100 µM (inactive)
COc1ccc2c(c1)O[C@H]1c3ccc(O)cc3OC[C@@H]21	35.1 µM (inactive)
COC1(OC)C(N(C)C)=C(Cl)C(=O)/C1=C/C=O	> 100 µM (inactive)
CN1N=C(c2ccncc2)OC1c1ccc(Cl)cc1Cl (stereo not given)	> 100 µM (inactive)
c1cc2c(ncc3cscc32)s1	> 100 µM (inactive)

Field: GI50. Fill in for each record below.
1. COc1ccc(C2C=C(c3ccccc3)Nc3nnnn32)cc1 (stereo not given)
2. C1CSCCSCCCSCCSCCCSCCSCCCSCCSC1
3. C=C(Br)CN(CC(=C)Br)C(C)=O

result:
45 µM (inactive)
> 100 µM (inactive)
> 100 µM (inactive)

====

Tested on: U-251
Measurement description: NCI tumour cell line growth inhibition, 48 h
Active and inactive are the calls of the source. Rule as the data show it: active = GI50 up to about 1.1 µM and inactive = higher.
Kindly state GI50 for each of the entries shown.

Compound	GI50
C[C@]12CC[C@H](OC(=O)Cc3ccc(N(CCCl)CCCl)cc3)CC1=CC[C@@H]1[C@@H]2CC[C@]2(C)C(=O)CC[C@@H]12	> 100 µM (inactive)
CN(C)CCC1(C2=CCCC2)CC/C(=C\c2ccccc2)C1=O (stereo not given)	16.6 µM (inactive)

Field: GI50. Fill in for each record below.
1. CC12Nc3c(Cl)cc(Cl)cc3N1C(=O)c1ccccc12 (stereo not given)
2. CCCC(=O)Oc1c2ccsc2c(OC(=O)CCC)c2ccsc12
3. O=c1c2ccccc2n2n1Cc1ccccc1C2
4. COc1ccc(OC)c(NS(=O)(=O)c2ccc3nc(C)n(NS(=O)(=O)c4cc(OC)ccc4OC)c(=O)c3c2)c1
5. [N-]=[N+]=CC(=O)CCC(NC(=O)C(CCC(=O)C=[N+]=[N-])NC(=O)CCC(N)C(=O)O)C(=O)O (stereo not given)
6. COC(=O)C1C(=O)O[C@@H](c2ccc(OC)cc2OC)C1C(=O)OC (stereo not given in full)
7. CCOC(=O)C(SCCO)C(C(=O)OCC)n1ccc(=O)[nH]c1=O (stereo not given)
8. CC(=O)C(=[N+]=[N-])C(=O)OCCOC(=O)C(=[N+]=[N-])C(C)=O

result:
> 100 µM (inactive)
1.36 µM (inactive)
> 100 µM (inactive)
> 100 µM (inactive)
> 100 µM (inactive)
> 100 µM (inactive)
27.6 µM (inactive)
> 1 µM (active)

Field: GI50. Fill in for each record below.
1. Cc1ccc2c(C)c3ccc4ccccc4c3c[n+]2c1.[O-][Cl+3]([O-])([O-])[O-]
2. CC(C)[Si]1(C(C)C)OCC2OC(n3c(C(=O)c4ccccc4)cc(=O)[nH]c3=O)CC2O[Si](C(C)C)(C(C)C)O1 (stereo not given)
3. CC(=O)O[C@]12CCCCC1C1(O)C(O)CCCC[C@H]12 (stereo not given in full)
4. N#CC(C#N)=C1C(C#N)=C(N)NC12OCCO2
5. [N-]=[N+]=C1N=CN=C1c1nc[nH]n1

result:
1. 5.02 µM (inactive)
2. 3.15 µM (inactive)
3. > 100 µM (inactive)
4. > 100 µM (inactive)
5. 27 µM (inactive)

Field: GI50. Fill in for each record below.
1. C[S+](C)CCOC(=O)C(=[N+]=[N-])c1ccc([N+](=O)[O-])cc1
2. Cc1ccc(N2CN3OC(=O)N(c4ccccc4)[C@@]3(c3ccccc3)C2)cc1
3. CCn1c(SCC(=O)N/N=C/c2ccccc2)nc2ccccc2c1=O
4. Nc1nc(Cl)cc(NCC2(CO)CCC(OCc3ccccc3)C2)n1 (stereo not given)
5. Cc1cc(O)nc(NNC(C#N)c2ccc(O)cc2)n1 (stereo not given)

result:
1. > 100 µM (inactive)
2. 30.5 µM (inactive)
3. 18.5 µM (inactive)
4. 29.9 µM (inactive)
5. > 100 µM (inactive)

Field: GI50. Fill in for each record below.
1. ON(CCc1ccccn1)Cc1ccccc1
2. Nc1cc(O)nc(SC2=NC(N)CC(O)C2)n1 (stereo not given)
3. C=C1c2nc3ccccc3n2C=C(c2ccc(Cl)cc2)N1c1ccc(OC)cc1
4. COc1nc(N=P(c2ccccc2)(c2ccccc2)c2ccccc2)cc(=O)[nH]1
5. CC(C)=CCc1c(O)c(CC=C(C)C)c2oc(-c3ccc(O)cc3O)c(CC=C(C)C)c(=O)c2c1O
6. c1ccc2[nH]c3[nH]c4[nH]c5ccccc5[nH]c4[nH]c3[nH]c2c1
7. COC1(OC)C(N(C)C)=C(Cl)C(=O)/C1=C/C=O

result:
1: > 100 µM (inactive); 2: > 100 µM (inactive); 3: 8.38 µM (inactive); 4: > 100 µM (inactive); 5: 9.12 µM (inactive); 6: > 100 µM (inactive); 7: > 100 µM (inactive)

Field: GI50. Fill in for each record below.
1. COc1cccc(CCn2c(N)c(C#N)c3ccc([N+](=O)[O-])cc3c2=O)c1
2. C=C1N(C)c2ccc(S(=O)(=O)c3ccc4c(c3)C(C)(C)C(=C)N4C)cc2C1(C)C
3. COc1ccc2c(c1)c(=O)c1ccccc1n2/C=C/C(=O)O
4. O=C(O)[C@@H]1[C@H](C(=O)O)[C@H](C(=O)O)C[C@@H]1C(=O)O
5. COC(=O)c1ccc(/C=C/S(=O)(=O)c2ccccc2)cc1
6. COC1/C=C(C)/C=C/C(C)/C=C/C(=O)OC(/C(C)=C/C=C(\C)CNC(=O)[C@H](CO)NC=O)C(C)/C=C/C=C/C(OC)CC/C=C(C)/C=C/C1 (stereo not given in full)
7. COc1cccc(C2c3cc4c(cc3OC(NNS(=O)(=O)c3ccc(C)cc3)C2C)OCO4)c1OC (stereo not given)

result:
1: > 100 µM (inactive); 2: 31.5 µM (inactive); 3: > 27 µM (inactive); 4: > 100 µM (inactive); 5: > 100 µM (inactive); 6: 0.0673 µM (active); 7: 2.62 µM (inactive)

Field: GI50. Fill in for each record below.
1. CCC1(CC)C(=O)N(C(=O)c2ccc(Cl)cc2)N(C(=O)c2ccccc2Cl)C1=O
2. COC(=O)C1(F)C(=O)NC(=O)NC1O (stereo not given)
3. O=C1C(=O)C2(CC1S(=O)(=O)c1ccccc1)c1ccccc1-c1ccccc12 (stereo not given)
4. C=CC1(C)CCC(C(C)C(=O)C(C=C(C)C)OC(C)=O)C12C(=O)Oc1ccccc1C2=O (stereo not given)

result:
1: 33.3 µM (inactive); 2: > 100 µM (inactive); 3: 18.6 µM (inactive); 4: 38 µM (inactive)

Field: GI50. Fill in for each record below.
1. Oc1nc(CC(O)c2ccc(Cl)c(Cl)c2)cc(-c2ccccc2)n1 (stereo not given)
2. CC(C)C1CCC/C=C/C=C/C=C/C=C/C(OC2OC(C)C(O)C(N)C2O)CC2OC(O)(CC(O)CC(O)C(O)CCC(=O)O1)CC(O)C2C(=O)O (stereo not given)

result:
["> 100 µM (inactive)", "> 52.5 µM (inactive)"]
